Assay: Solubility in water (measured by turbimetry)
measured_parameter: solubility

CC(C)=CCC[C@@H](C)[C@H]1CC=C2C3=C(CC[C@@]21C)[C@@]1(C)CC[C@H](O)C(C)(C)[C@@H]1CC3
< 0.1 µg/mL
